target-of-assay: EGFR del19/C797S (Homo sapiens, UniProt P00533, C797S/DEL746-750)
Sequence (P00533 with tags, fused parts or gaps DEL746-750/C797S): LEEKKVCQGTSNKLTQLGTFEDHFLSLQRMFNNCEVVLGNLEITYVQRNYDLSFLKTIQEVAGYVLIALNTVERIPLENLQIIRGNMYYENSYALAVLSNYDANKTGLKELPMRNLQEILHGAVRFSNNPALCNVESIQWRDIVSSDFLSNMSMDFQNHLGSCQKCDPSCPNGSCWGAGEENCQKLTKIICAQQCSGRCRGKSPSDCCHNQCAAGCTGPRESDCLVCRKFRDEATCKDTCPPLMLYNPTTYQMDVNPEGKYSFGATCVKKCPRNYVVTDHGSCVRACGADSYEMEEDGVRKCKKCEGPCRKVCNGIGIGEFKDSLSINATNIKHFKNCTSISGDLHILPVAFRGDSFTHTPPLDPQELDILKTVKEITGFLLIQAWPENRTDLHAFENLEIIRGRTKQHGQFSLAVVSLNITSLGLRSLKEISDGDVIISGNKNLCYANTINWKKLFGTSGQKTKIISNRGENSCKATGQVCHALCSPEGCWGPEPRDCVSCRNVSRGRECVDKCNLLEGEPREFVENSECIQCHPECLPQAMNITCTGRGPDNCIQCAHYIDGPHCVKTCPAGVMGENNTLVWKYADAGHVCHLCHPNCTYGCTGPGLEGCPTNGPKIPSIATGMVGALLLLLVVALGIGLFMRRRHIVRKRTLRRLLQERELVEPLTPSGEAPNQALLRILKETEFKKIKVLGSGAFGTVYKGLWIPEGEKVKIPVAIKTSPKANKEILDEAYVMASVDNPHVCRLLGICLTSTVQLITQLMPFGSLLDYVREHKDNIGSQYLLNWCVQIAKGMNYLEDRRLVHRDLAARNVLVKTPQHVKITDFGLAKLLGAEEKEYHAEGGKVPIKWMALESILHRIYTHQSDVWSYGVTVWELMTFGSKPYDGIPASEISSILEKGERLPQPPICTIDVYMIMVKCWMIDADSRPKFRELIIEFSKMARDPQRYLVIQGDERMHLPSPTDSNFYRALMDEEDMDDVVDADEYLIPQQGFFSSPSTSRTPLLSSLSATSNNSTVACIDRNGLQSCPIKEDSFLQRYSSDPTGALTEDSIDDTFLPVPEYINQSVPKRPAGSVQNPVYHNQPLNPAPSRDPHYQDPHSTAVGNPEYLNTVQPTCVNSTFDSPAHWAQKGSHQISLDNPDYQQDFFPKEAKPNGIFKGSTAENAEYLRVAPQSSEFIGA
test-description: Biochemical EGFR kinase assay (Lance Ultra TR-FRET), double mutant del19/C797S
condition: IC50 del19/C797S, 100 μM ATP
Procedure: Biochemical EGFR kinase assays were conducted using Lance Ultra time-resolved fluorescence resonance energy transfer (TR-FRET) technology from Perkin-Elmer. […] Each kinase reactions were incubated at room temperature for 1 hour and then stopped by the addition of 4 μL of stop solution (10 mM EDTA). […] After 60 minutes incubation at room temperature the LANCE signal was measured on an EnVision Multilabel Reader (Perkin-Elmer). […]
experimental-endpoint: IC50 (nM)

- molecule: "CC(C)(O)[C@H]1CC[C@@H](Nc2cc(Nc3ccnc(-c4cnn(S(=O)(=O)C5CC5)c4)n3)ncc2-c2cc(OCCN3CCOCC3)ccn2)CC1 [Example 213]"
  recorded-value: 7.7

(1) CN(C)CC1CCC(Nc2cc(Nc3ccnc(-c4cnn(S(=O)(=O)C5CC5)c4)n3)ncc2-c2ccc(C(C)(O)C(F)(F)F)cn2)CC1 (stereo not drawn) [Example 234]
(2) O=S(=O)(C1CC1)n1cc(-c2nccc(Nc3cc(N[C@H]4CC[C@@H](CO)CC4)c(-c4ccc(C(F)(F)CO)cn4)cn3)n2)cn1 [Example 244]
(3) O=S(=O)(C1CC1)n1cc(-c2nccc(Nc3cc(N[C@H]4CC[C@@H](CO)CC4)c(-c4cc(NC5CC(F)(F)C5)ccn4)cn3)n2)cn1 [Example 214]
(4) O=S(=O)(C1CC1)n1cc(-c2nccc(Nc3cc(N[C@H]4CC[C@@H](CO)CC4)c(-c4ccnc(N[C@H]5CC[C@@H](CO)CC5)n4)cn3)n2)cn1 [Example 192]
(5) CC(C)(O)[C@H]1CC[C@@H](Nc2nccc(-c3cnc(Nc4ccnc(-c5cnn(S(=O)(=O)C6CC6)c5)n4)cc3N[C@H]3CC[C@@H](C(C)(C)O)CC3)n2)CC1 [Example 193]
Ask: Which order do these items take when sorted by rising IC50? List them. Rank the items, then write their labels in that order.
Reply: 1, 2, 4, 3, 5

* * *

target-of-assay: EGFR del19/T790M/C797S (Homo sapiens, UniProt P00533, C797S/DEL746-750/T790M)
Sequence (P00533 with tags, fused parts or gaps DEL746-750/T790M/C797S): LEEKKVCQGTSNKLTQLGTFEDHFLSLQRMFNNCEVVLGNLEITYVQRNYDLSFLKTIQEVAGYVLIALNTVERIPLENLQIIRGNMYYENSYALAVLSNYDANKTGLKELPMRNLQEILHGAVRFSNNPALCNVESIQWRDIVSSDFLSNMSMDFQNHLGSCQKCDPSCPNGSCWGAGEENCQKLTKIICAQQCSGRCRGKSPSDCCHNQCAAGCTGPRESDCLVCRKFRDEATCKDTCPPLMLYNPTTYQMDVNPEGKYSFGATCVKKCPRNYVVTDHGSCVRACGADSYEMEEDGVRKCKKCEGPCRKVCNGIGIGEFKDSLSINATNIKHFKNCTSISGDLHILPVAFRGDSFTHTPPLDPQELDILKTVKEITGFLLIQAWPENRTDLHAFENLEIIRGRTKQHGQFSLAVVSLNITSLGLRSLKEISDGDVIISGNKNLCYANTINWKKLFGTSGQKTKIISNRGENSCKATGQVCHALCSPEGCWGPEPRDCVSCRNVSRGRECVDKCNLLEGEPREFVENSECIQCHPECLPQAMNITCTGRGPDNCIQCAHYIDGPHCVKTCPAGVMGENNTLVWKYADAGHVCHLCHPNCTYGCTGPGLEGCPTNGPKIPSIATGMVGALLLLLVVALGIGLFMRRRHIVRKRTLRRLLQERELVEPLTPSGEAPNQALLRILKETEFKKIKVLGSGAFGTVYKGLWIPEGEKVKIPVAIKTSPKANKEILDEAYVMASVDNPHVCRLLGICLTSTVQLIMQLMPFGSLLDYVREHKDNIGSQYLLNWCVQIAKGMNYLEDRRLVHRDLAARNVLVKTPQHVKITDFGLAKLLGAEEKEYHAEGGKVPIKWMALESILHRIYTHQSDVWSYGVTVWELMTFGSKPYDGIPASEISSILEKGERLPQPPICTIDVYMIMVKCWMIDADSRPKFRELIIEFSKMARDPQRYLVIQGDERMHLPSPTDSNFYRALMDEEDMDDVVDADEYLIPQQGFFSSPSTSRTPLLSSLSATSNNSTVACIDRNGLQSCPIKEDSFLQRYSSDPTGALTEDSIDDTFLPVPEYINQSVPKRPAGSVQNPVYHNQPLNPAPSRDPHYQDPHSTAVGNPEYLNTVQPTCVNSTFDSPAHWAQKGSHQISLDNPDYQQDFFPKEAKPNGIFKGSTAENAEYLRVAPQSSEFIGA
test-description: Biochemical EGFR kinase assay (Lance Ultra TR-FRET), triple mutant del19/T790M/C797S
condition: IC50 del19/T790M/C797S, 100 μM ATP
Procedure: Biochemical EGFR kinase assays were conducted using Lance Ultra time-resolved fluorescence resonance energy transfer (TR-FRET) technology from Perkin-Elmer. […] Each kinase reactions were incubated at room temperature for 1 hour and then stopped by the addition of 4 μL of stop solution (10 mM EDTA). […] After 60 minutes incubation at room temperature the LANCE signal was measured on an EnVision Multilabel Reader (Perkin-Elmer). […]
experimental-endpoint: IC50 (nM)

Recorded IC50, per entry:
- compound: "O=S(=O)(C1CC1)n1cc(-c2nccc(Nc3cc(NC4CCC(F)(CO)CC4)c(-c4cccc(F)n4)cn3)n2)cn1 (stereo not drawn)"
  target-of-assay: "EGFR del19/T790M/C797S (Homo sapiens, UniProt P00533, C797S/DEL746-750/T790M)"
  IC50 (nM): 1.3
- compound: "CN1CCN(S(=O)(=O)c2ccc(-c3cnc(Nc4ccnc(-c5cnn(S(=O)(=O)C6CC6)c5)n4)cc3N[C@H]3CC[C@@H](CO)CC3)nc2)CC1"
  target-of-assay: "EGFR del19/T790M/C797S (Homo sapiens, UniProt P00533, C797S/DEL746-750/T790M)"
  IC50 (nM): 1.4
- compound: "CC(C)(O)c1ccc(-c2cnc(Nc3ccnc(-c4cnn(S(=O)(=O)C5CC5)c4)n3)cc2N[C@H]2CC[C@@H](C(C)(C)O)CC2)nc1"
  target-of-assay: "EGFR del19/T790M/C797S (Homo sapiens, UniProt P00533, C797S/DEL746-750/T790M)"
  IC50 (nM): 0.9
- compound: "CC(C)(F)c1ccc(-c2cnc(Nc3ccnc(-c4cnn(S(=O)(=O)C5CC5)c4)n3)cc2N[C@H]2CC[C@@H](C(C)(C)O)CC2)nc1"
  target-of-assay: "EGFR del19/T790M/C797S (Homo sapiens, UniProt P00533, C797S/DEL746-750/T790M)"
  IC50 (nM): 9.1
- compound: "CC(C)(O)c1ccc(-c2cnc(Nc3ccnc(-c4cnn(S(=O)(=O)C5CC5)c4)n3)cc2N[C@H]2CC[C@@H](CO)CC2)nc1"
  target-of-assay: "EGFR del19/T790M/C797S (Homo sapiens, UniProt P00533, C797S/DEL746-750/T790M)"
  IC50 (nM): 1.3

(P) CC(C)(O)[C@H]1CC[C@@H](Nc2cc(Nc3ccnc(-c4cnn(S(=O)(=O)C5CC5)c4)n3)ncc2-c2cnc(F)cn2)CC1
(Q) O=S(=O)(C1CC1)n1cc(-c2nccc(Nc3cc(N[C@H]4CC[C@@H](CO)CC4)c(-c4ccc(C(F)(F)CO)cn4)cn3)n2)cn1
Ask: Identify the entry with the smaller IC50: P or Q . Answer by quoting the chosen item's label.
Reply: Q

(P) C[C@]1(O)CC[C@@H](Nc2cc(Nc3ccnc(-c4cnn(S(=O)(=O)C5CC5)c4)n3)ncc2-c2cc(NCCC(F)(F)F)ccn2)CC1
(Q) C[C@]1(O)CC[C@@H](Nc2cc(Nc3ccnc(-c4cnn(S(=O)(=O)C5CC5)c4)n3)ncc2-c2ccc(N3CC(F)(F)C3)cn2)CC1
Ask: Response body: label of entry with the larger IC50; valid values P , Q . To answer, give the label that identifies your chosen option.
Reply: P

* * *

target-of-assay: EGFR wildtype (Homo sapiens)
Sequence (P00533 25-1210): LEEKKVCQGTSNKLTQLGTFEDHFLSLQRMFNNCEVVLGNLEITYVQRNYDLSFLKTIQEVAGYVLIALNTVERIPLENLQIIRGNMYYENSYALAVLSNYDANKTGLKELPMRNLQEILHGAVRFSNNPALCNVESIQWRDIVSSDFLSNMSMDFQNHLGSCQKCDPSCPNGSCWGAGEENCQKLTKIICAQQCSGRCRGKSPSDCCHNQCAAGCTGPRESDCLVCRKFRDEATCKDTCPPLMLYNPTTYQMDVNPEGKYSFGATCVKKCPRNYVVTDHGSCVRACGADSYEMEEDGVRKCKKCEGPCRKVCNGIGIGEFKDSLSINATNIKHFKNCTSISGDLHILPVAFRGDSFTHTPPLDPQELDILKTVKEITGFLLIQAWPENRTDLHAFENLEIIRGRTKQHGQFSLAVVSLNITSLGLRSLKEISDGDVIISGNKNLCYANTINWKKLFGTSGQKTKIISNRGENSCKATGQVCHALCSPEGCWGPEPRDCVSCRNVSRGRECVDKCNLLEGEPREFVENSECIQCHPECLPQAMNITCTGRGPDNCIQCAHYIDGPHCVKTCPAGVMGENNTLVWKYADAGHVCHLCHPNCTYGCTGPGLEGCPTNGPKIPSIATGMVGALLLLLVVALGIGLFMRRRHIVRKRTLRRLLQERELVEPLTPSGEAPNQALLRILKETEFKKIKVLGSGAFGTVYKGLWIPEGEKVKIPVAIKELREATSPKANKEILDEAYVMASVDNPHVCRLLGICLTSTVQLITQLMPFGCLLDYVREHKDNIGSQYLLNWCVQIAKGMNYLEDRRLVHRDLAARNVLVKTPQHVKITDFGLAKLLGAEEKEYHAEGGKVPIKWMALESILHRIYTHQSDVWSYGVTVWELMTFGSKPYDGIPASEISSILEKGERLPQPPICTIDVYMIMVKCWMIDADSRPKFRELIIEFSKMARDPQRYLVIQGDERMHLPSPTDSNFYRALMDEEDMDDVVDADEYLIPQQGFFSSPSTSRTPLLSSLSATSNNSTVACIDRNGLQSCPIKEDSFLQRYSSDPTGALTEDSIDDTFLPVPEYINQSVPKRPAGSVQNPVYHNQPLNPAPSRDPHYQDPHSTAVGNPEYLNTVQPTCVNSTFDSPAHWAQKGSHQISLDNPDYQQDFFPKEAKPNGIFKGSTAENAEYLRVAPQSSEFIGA
test-description: Biochemical EGFR kinase assay (Lance Ultra TR-FRET), wildtype
condition: Km ATP; read-out: IC50 WT (nM) Km ATP
experimental-endpoint: IC50 (nM)

These recorded examples may help you get a feel for the data.
- molecule: "C[C@]1(O)CC[C@@H](Nc2cc(Nc3ccnc(-c4cnn(S(=O)(=O)C5CC5)c4)n3)ncc2-c2cc(N3CCOCC3)ccn2)CC1"
  IC50 / nM: 24.7
- molecule: "CN1CCC(Oc2ccc(-c3cnc(Nc4ccnc(-c5cnn(CC(F)F)c5)n4)cc3NC3CCC(F)(F)C3)nc2)CC1 (centres unmarked)"
  IC50 / nM: 32
- molecule: "CC(C)(O)c1cc(-c2cnc(Nc3ccnc(-c4cnn(S(=O)(=O)C5CC5)c4)n3)cc2N[C@H]2CC[C@@H](C(C)(C)O)CC2)ncc1F"
  IC50 / nM: 37.8

(1) O=S(=O)(C1CC1)n1cc(-c2nccc(Nc3cc(N[C@H]4CC[C@@H](CO)CC4)c(-c4ccc(N5CCC(F)(F)CC5)nn4)cn3)n2)cn1
(2) CC(C)(O)[C@H]1CC[C@@H](Nc2cc(Nc3ccnc(-c4cnn(S(=O)(=O)C5CC5)c4)n3)ncc2-c2ccc(N3CCCC3)cn2)CC1
(3) CN(C)C[C@H]1CC[C@@H](Nc2cc(Nc3ccnc(-c4cnn(S(=O)(=O)C5CC5)c4)n3)ncc2-c2cnc(N3CCC(F)(F)CC3)cn2)CC1
(4) C[C@]1(O)CC[C@@H](Nc2cc(Nc3ccnc(-c4cnn(S(=O)(=O)C5CC5)c4)n3)ncc2-c2ncccc2OCC(F)F)CC1
Ask: rank_up(items): orders items by reported IC50 in ascending numerical order. Would you mind listing the labels in the order asked for?
Reply: 3, 1, 2, 4
(3: 9.1 nM, 1: 14.5 nM, 2: 29.6 nM, 4: 189 nM)

* * *

target-of-assay: EGFR del19/C797S (Homo sapiens, UniProt P00533, C797S/DEL746-750)
test-description: Biochemical EGFR kinase assay (Lance Ultra TR-FRET), double mutant del19/C797S
condition: IC50 del19/C797S (nM) 100 μM ATP, 100 μM ATP
experimental-endpoint: IC50 (nM)

For orientation, consider the following solved cases.
- cpd-smiles: "O=S(=O)(C1CC1)n1cc(-c2nccc(Nc3cc(N[C@H]4CC[C@@H](CO)CC4)c(-c4ccc(N5CCCC5)cn4)cn3)n2)cn1"
  experimental-endpoint: "IC50"
  recorded-value: 19
- cpd-smiles: "CN(C)C[C@H]1CC[C@@H](Nc2cc(Nc3ccnc(-c4cnn(S(=O)(=O)C5CC5)c4)n3)ncc2-c2ccc(C(C)(C)O)nn2)CC1"
  experimental-endpoint: "IC50"
  recorded-value: 0.1
- cpd-smiles: "CN(C)C[C@H]1CC[C@@H](Nc2cc(Nc3ccnc(-c4cnn(S(=O)(=O)C5CC5)c4)n3)ncc2-c2cc(C(F)F)ccn2)CC1"
  experimental-endpoint: "IC50"
  recorded-value: 0.6
- cpd-smiles: "COC1CN(c2ccc(-c3cnc(Nc4ccnc(-c5cnn(S(=O)(=O)C6CC6)c5)n4)cc3N[C@H]3CC[C@@](C)(O)CC3)nc2)C1"
  experimental-endpoint: "IC50"
  recorded-value: 0.9
- cpd-smiles: "CC(C)(O)[C@H]1CC[C@@H](Nc2cc(Nc3ccnc(-c4cnn(S(=O)(=O)C5CC5)c4)n3)ncc2-c2cc(N3CCC(F)(F)CC3)ccn2)CC1"
  experimental-endpoint: "IC50"
  recorded-value: 66.5
- cpd-smiles: "CN(C)Cc1cnc(-c2cnc(Nc3ccnc(-c4cnn(S(=O)(=O)C5CC5)c4)n3)cc2N[C@H]2CC[C@@](C)(O)CC2)cn1"
  experimental-endpoint: "IC50"
  recorded-value: 0.2
- cpd-smiles: "C[C@]1(O)CC[C@@H](Nc2cc(Nc3ccnc(-c4cnn(S(=O)(=O)C5CC5)c4)n3)ncc2-c2ccc(CN3CCC(F)(F)CC3)cn2)CC1"
  experimental-endpoint: "IC50"
  recorded-value: 1.3
- cpd-smiles: "C[C@]1(O)CC[C@@H](Nc2cc(Nc3ccnc(-c4cnn(S(=O)(=O)C5CC5)c4)n3)ncc2-c2cc(C(F)F)ccn2)CC1"
  experimental-endpoint: "IC50"
  recorded-value: 2

(P) CC(=O)c1cccc(-c2cnc(Nc3ccnc(-c4cnn(S(=O)(=O)C5CC5)c4)n3)cc2N[C@H]2CC[C@@](C)(O)CC2)n1
(Q) CC(C)(O)c1ccc(-c2cnc(Nc3ccnc(-c4cnn(S(=O)(=O)C5CC5)c4)n3)cc2N[C@H]2CC[C@@H](CO)CC2)nn1
(R) O=S(=O)(C1CC1)n1cc(-c2nccc(Nc3cc(N[C@H]4CC[C@@H](NCCF)CC4)c(-c4ccc(CO)cn4)cn3)n2)cn1
Ask: Hey, quick one: sort these by IC50, low to high? Dear reader, please state the labels in the requested order.
Reply: Q, R, P

(I) C[C@]1(O)CC[C@@H](Nc2cc(Nc3ccnc(-c4cnn(S(=O)(=O)C5CC5)c4)n3)ncc2-c2ccc(N3CCOCC3)nn2)CC1
(II) C[C@]1(O)CC[C@@H](Nc2cc(Nc3ccnc(-c4cnn(S(=O)(=O)C5CC5)c4)n3)ncc2-c2cccc(CN3CCOCC3)n2)CC1
(III) O=S(=O)(C1CC1)n1cc(-c2nccc(Nc3cc(N[C@H]4CC[C@@H](CO)CC4)c(-c4ccc(CO)cn4)cn3)n2)cn1
Ask: Number of compounds to sort: 3. Sort criterion: IC50, ascending. Reply with the item labels sorted in the order that was asked for.
Reply: III, I, II
